assay: yeast growth modulation, basal conditions, primary screen, YJM789 clinical isolate, OD600, 24 h (AID 1089);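 further: growth of clinical yeast isolate S. cerevisiae YJM 789 seeded 1000 cells per well; test concentration not given here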; conditions: S. cerevisiae YJM789 growth, higher = more signal, called active from +8 up or from −8 down
I would appreciate it if you labelled entries Condition met when z-score is 0.4 or higher, otherwise Condition not met.

COCCOC(=O)N1C(=O)[C@@]2(c3cc(C#CCC(C(=O)OC)C(=O)OC)ccc31)[C@H](C(=O)N1CCc3cc(OC)c(OC)cc3C1)[C@H]1C(=O)O[C@H](c3ccccc3)[C@H](c3ccccc3)N1[C@@H]2c1ccc(OCCO)cc1 | Condition met
CC=CC(O)C1C=CC2C(=O)N(c3ccccc3)C(=O)C2N1Nc1ccccc1F (stereo unspecified) | Condition not met
CC(C)C(=C=CC[C@H](O)c1ccc(OCCO)cc1)C[C@H](O)c1ccccn1 | Condition met
CC(CO)N1C(=O)[C@@H]2[C@H]3C(=O)OCC=C[C@H]3OC23C=CCN(CCN2CCOCC2)C(=O)[C@@H]13 (stereo partly specified) | Condition not met
CO[C@H]1O[C@H](CO)[C@@H](OC(=O)Nc2ccc3c(c2)OCO3)[C@H](OC(=O)c2cc3ccccc3[nH]2)[C@H]1OC(=O)c1cc2ccccc2[nH]1 | Condition not met
Cn1cccc1C(O)C1C=CC2C(=O)NC(=O)C2N1Nc1ccc(Cl)cc1Cl (stereo unspecified) | Condition not met
CC1=C[C@@]2(CO)C(=O)[C@]3(CO3)[C@@H]1[C@H]1[C@]2(C)C=C(CO)C(=O)[C@]12CO2 | Condition not met
COCCCNC(=O)[C@]1(CCS(=O)(=O)c2ccccc2)N=C(c2ccc(OCCCO)cc2)O[C@@H]1c1ccccc1CN=[N+]=[N-] | Condition met
COc1ccc(CCN2C(=O)[C@@]3(Cc4ccccc42)c2ccccc2C(=O)N(Cc2ccccc2OC)[C@H]3c2ccc(CO)cc2)cc1 | Condition not met
CN1C(=O)C2C=CC(C(O)c3cccc4ccccc34)N(N3CCCCC3)C2C1=O (stereo unspecified) | Condition not met

* * *

experiment: yeast growth modulation, basal conditions, primary screen, YJM789 clinical isolate, OD600, 24 h (AID 1089);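 further: growth of clinical yeast isolate S. cerevisiae YJM 789 seeded 1000 cells per well; test concentration not given here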; conditions: S. cerevisiae YJM789 growth, higher = more signal, called active from +8 up or from −8 down
quantity: z-score

CCCCC=C[C@@H](NC(=O)c1ccc(-c2ccccc2)cc1)c1ccccc1 | 0.603
COc1ccc(NC(=O)O[C@H]2[C@H](OC(=O)Nc3ccccc3)[C@H](OC(=O)Nc3ccccc3)[C@@H](OC)O[C@@H]2CO)cc1 | 0.855
COc1ccc([Si](C)(C)[C@H]2[C@H](CCO)O[C@@]3(C(=O)N(Cc4cccc(N5C(=O)COc6ccccc65)c4)c4ccccc43)[C@@H]2C)cc1 | 1.5

* * *

system: Fibrinogen (Alexa647-labelled); assay: fibrinogen binders on compound microarrays, profiling panel, artefact control for SMM control-protein annotation, biochemical, small-molecule microarray, 635/667 nm fluorescence (AID 1131); settings: fibrinogen-A647 binding fluorescence, higher = more signal;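 further: z-score merges 667 nm fluorescence with per-spot signal-to-noise over triplicate slides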
I would appreciate it if you labelled entries 1 when composite z-score is -0.08 or higher, otherwise -1.

COCCOC(=O)N1C(=O)[C@@]2(c3cc(C#Cc4ccc(OC)cc4)ccc31)[C@H](c1ccccc1OCCO)N1[C@H](c3ccccc3)[C@H](c3ccccc3)OC(=O)[C@H]1[C@@H]2C(=O)N1CCCCCCC1 | -1
C[C@H]1NC(=O)[C@@]23C(=O)N[C@@H](Cc4ccccc4)C2[C@H](C)[C@@]2(C)O[C@H]2C3/C=C/C/C=C\CNC(=O)[C@H](Cc2ccccc2)NC1=O (some centres undefined) | 1
CCCCCCCCCCC(O)C1C=CC2C(=O)N(C)C(=O)C2N1NC(=O)OC(C)(C)C (centres undefined) | 1
O=C1O[C@H](c2ccccc2)[C@H](c2ccccc2)N2[C@H]1[C@@H](C(=O)Nc1nc3ccccc3s1)[C@]1(C(=O)Nc3ccc(C#CCCO)cc31)[C@H]2c1ccc(O)cc1 | 1
COC(=O)[C@@]1(Cc2ccc(OC)cc2)[C@@H]2C(=CC(=O)[C@H]2CC(=O)C(=O)N(C)C)CN1C(=O)c1ccccc1 | 1
CCOc1cc(C(O)C2C=CC3C(=O)N(c4ccccc4)C(=O)C3N2Nc2ccc(C#N)cc2)ccc1O (centres undefined) | 1
CCCC[C@@H](O)C1=C(COc2ccccc2)C[C@H]2C(=O)N(C)C(=O)[C@H]2[C@H]1CO | -1
C=CCC(OC(C)=O)[C@@H]1[C@@H](N(Cc2ccc(-c3cccc(C(F)(F)F)c3)o2)C(=O)c2ccc(-c3ccccc3)cc2)c2cc(OCCCO)ccc2N1C(=O)c1ccc2ccccc2n1 (some centres undefined) | 1
COCCOC(=O)N1C(=O)[C@@]2(c3cc(C#Cc4ccc(OC)cc4)ccc31)[C@H](C(=O)Nc1nc3ccccc3s1)[C@H]1C(=O)O[C@H](c3ccccc3)[C@H](c3ccccc3)N1[C@@H]2c1ccc(O)cc1 | 1
COCCCNC(=O)[C@@]1(Sc2ccc(C)cc2)CC(=O)N(C2CCCCC2)[C@@H]1c1ccc(CO)cc1 | -1
CCCCO[C@H]1C[C@H]2C(I)=C[C@@H]1C(=O)[C@]21CO1 | -1
CCOC(=O)C1=CC[C@@H](c2cccc(Cl)c2)N(S(=O)(=O)c2ccc(C)cc2)C1 | -1
CC(C)N1C(=O)c2ccccc2[C@@H](C(=O)NC2CC2)[C@@H]1c1ccc(CO)cc1 | 1
CCOC(=O)C[C@H]1[C@H](OC(=O)c2ccc(C(=O)c3ccccc3)cc2)[C@@H](NC(=O)Cc2ccc(OC)cc2)c2cc(OCCCO)ccc2N1C(=O)c1ccccc1 | 1
C#CCN([C@@H](Cc1ccc(O)cc1)C(=O)OC)[C@@H](/C=C/C1CC1)[C@H](O)Cc1ccccc1 | -1
NC(=O)N1C(=O)C2C(C1=O)C1C=C(CCCO)C2C(c2cccs2)N1Cc1cccc(OC(F)(F)F)c1 (centres undefined) | 1
COc1ccc([Si](C)(C)[C@@H]2[C@@H](CC(=O)N(CCO)Cc3ccccc3)O[C@]3(C(=O)N(Cc4cccc(N5CCOC5=O)c4)c4ccccc43)[C@H]2C)cc1 | 1
COC(=O)[C@@]1(Cc2ccc(F)cc2)[C@H]2c3cc(C(=O)N4CCCC4)n(CCc4ccc(O)c(O)c4)c3C[C@H]2CN1C(=O)c1ccccc1 | -1
